Target: STS (Homo sapiens)
Construct: expressed in transfected cells; host or cells: HEK-293 cells stably transfected with STS (G418 selection), obtained from Dr. Van Luu-The; used as freeze-thaw homogenate
Sequence (P08842 22-583): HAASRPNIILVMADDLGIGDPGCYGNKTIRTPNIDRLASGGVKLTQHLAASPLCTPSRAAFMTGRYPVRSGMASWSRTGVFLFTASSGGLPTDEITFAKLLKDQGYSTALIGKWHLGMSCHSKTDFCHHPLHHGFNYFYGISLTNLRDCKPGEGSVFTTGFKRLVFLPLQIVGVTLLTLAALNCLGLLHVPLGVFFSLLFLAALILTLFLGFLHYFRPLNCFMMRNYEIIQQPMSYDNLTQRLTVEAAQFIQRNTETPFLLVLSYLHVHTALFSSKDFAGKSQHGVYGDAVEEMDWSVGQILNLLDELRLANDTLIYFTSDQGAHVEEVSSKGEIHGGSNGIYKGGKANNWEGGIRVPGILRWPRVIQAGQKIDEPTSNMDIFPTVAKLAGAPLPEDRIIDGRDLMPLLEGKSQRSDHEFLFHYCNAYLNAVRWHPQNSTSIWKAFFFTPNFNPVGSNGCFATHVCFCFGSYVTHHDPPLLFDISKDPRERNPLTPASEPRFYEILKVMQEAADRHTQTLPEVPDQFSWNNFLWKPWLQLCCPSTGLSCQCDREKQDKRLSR
Experiment: STS inhibition of libraries 1-EO to 4-EO, homogenate of STS transfected HEK-293 cells
Format: biochemical
Details: 1 μM; mean ± SEM, triplicate
Please enter Fulfilled where STS inhibition (%) is greater than or equal to 50%, and Not fulfilled where it is lower.

// below: answered compounds
CCN(Cc1cccnc1)Cc1cccc(C(=O)N2CCc3ccc(OS(N)(=O)=O)cc3C2)c1 Not fulfilled
NS(=O)(=O)Oc1ccc2c(c1)CN(C(=O)c1cccc(CN3CCC(N4CCCCC4)CC3)c1)CC2 Not fulfilled
NS(=O)(=O)Oc1ccc2c(c1)CN(C(=O)c1ccc(CN3CCSCC3)cc1)CC2 Fulfilled
NS(=O)(=O)Oc1ccc2c(c1)CN(C(=O)c1ccc(CN3CCN(c4ncccn4)CC3)cc1)CC2 Not fulfilled
CCCN(CCC)Cc1ccc(C(=O)N2CCc3ccc(OS(N)(=O)=O)cc3C2)cc1 Fulfilled

Input: Decide: is the reported value of STS inhibition (%) for CC(C)CCN(CCC(C)C)Cc1ccc(C(=O)N2CCc3ccc(OS(N)(=O)=O)cc3C2)cc1 equal to or greater than 50%?
Output: Fulfilled

Input: Cool, now CCN(Cc1ccc(Br)cc1)Cc1ccc(C(=O)N2CCc3ccc(OS(N)(=O)=O)cc3C2)cc1
Output: Fulfilled

Input: Now consider CN(C)CCN(CCN(C)C)Cc1cccc(C(=O)N2CCc3ccc(OS(N)(=O)=O)cc3C2)c1 .
Output: Not fulfilled

Input: Okay, and CCN(Cc1ccncc1)Cc1ccc(C(=O)N2CCc3ccc(OS(N)(=O)=O)cc3C2)cc1 ?
Output: Fulfilled

Input: Can you handle CCN(Cc1cccc(Br)c1)Cc1cccc(C(=O)N2CCc3ccc(OS(N)(=O)=O)cc3C2)c1 next?
Output: Not fulfilled

====

Examples of compounds with documented proliferation of MCF-7 (ER+) cells follow.
Test system: MCF-7 (ER+) cells
Test: Proliferative (estrogenic) activity on MCF-7 (ER+) cells
Type: cell-based
Conditions: 1 μM; 7 days; control 100%
Lab book: enter the figure in %, no units written.

Input: Which measured proliferation of MCF-7 (ER+) cells belongs to O=C(c1ccc(CN(CCO)Cc2ccccc2)cc1)N1CCc2ccc(O)cc2C1 , tested on MCF-7 (ER+) cells?
Output: 135

====

Target: STS (Homo sapiens, UniProt P08842)
Construct: expressed in transfected cells; host or cells: HEK-293 cells stably transfected with STS (G418 selection), obtained from Dr. Van Luu-The; used as freeze-thaw homogenate
Sequence (P08842 22-583): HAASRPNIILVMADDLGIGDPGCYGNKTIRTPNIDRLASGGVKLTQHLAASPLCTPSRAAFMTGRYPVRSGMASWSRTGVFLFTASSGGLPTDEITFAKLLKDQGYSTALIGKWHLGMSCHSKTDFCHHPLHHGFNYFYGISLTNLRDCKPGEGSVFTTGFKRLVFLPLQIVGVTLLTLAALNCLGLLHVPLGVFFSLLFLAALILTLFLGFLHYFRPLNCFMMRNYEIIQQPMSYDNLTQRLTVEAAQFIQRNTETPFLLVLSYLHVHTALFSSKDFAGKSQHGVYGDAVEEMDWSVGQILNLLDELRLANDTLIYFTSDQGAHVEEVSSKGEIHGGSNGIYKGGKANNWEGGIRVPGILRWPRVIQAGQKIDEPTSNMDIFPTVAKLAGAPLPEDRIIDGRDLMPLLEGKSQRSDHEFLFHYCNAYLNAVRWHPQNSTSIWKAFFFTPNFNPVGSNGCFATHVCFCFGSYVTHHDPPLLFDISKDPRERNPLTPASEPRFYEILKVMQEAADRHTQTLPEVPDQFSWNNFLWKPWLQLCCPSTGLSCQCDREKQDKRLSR
Assay: STS inhibition of libraries 1-EO to 4-EO, homogenate of STS transfected HEK-293 cells
Format: biochemical
Conditions: 0.1 μM; mean ± SEM, triplicate
MEASURED_ATTRIBUTE: STS inhibition (%)
The answer is to be given in %; state only the numeric part.

MOLECULE	STS inhibition (%)
NS(=O)(=O)Oc1ccc2c(c1)CN(C(=O)c1cccc(CN3CCOCC3)c1)CC2 [2-EO-01]	0.0
NS(=O)(=O)Oc1ccc2c(c1)CN(C(=O)c1cccc(CN3CCN(Cc4ccccc4)CC3)c1)CC2 [2-EO-05]	0.0
CN1CCN(Cc2cccc(C(=O)N3CCc4ccc(OS(N)(=O)=O)cc4C3)c2)CC1 [2-EO-04]	0.0
CN(CCN1CCCCC1)Cc1ccc(C(=O)N2CCc3ccc(OS(N)(=O)=O)cc3C2)cc1 [3-EO-06]	0.3

Input: May I ask what STS inhibition (%) has been recorded for NS(=O)(=O)Oc1ccc2c(c1)CN(C(=O)c1ccc(CN3CCCCC3)cc1)CC2 [1-EO-02] ?
Output: 11.5

Input: What about NS(=O)(=O)Oc1ccc2c(c1)CN(C(=O)c1cccc(CN(CCO)Cc3ccccc3)c1)CC2 [4-EO-02] ?
Output: 26.7

Input: Further, for CN(C)CCN(CCN(C)C)Cc1ccc(C(=O)N2CCc3ccc(OS(N)(=O)=O)cc3C2)cc1 [3-EO-08] ?
Output: 3.8

====

Let's look at some compounds and their measured IC50.
Target: steroid sulfatase (STS) (Homo sapiens, UniProt P08842)
Construct: expressed in transfected cells; host or cells: HEK-293 cells stably transfected with STS (G418 selection), obtained from Dr. Van Luu-The; used as freeze-thaw homogenate
Sequence (P08842 22-583): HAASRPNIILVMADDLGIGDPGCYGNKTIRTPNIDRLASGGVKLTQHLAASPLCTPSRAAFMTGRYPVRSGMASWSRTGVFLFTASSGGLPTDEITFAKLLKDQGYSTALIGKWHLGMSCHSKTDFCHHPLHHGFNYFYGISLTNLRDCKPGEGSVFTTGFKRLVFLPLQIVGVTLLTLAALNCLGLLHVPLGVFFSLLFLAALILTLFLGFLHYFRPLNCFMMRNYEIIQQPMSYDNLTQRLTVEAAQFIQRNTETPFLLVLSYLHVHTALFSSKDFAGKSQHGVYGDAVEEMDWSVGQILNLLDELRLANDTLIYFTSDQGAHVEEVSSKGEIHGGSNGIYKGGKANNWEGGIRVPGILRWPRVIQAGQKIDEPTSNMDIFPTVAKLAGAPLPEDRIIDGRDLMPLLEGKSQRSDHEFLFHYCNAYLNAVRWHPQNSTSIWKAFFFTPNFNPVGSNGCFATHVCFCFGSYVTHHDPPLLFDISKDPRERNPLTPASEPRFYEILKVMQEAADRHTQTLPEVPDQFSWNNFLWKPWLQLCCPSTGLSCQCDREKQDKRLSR
Test: Steroid sulfatase (STS) inhibition, [3H]-E1S to [3H]-E1, homogenate of transfected HEK-293 cells
Assay type: biochemical
Details: transformation of E1S into E1 in homogenate of HEK-293 cells transfected with STS; read-out: Steroid Sulfatase Inhibition IC50

COMPOUND	IC50
Cc1ccc(CN(Cc2ccc(C(=O)N3CCc4ccc(OS(N)(=O)=O)cc4C3)cc2)Cc2ccco2)s1	0.0039 µM

Input: Entry Cl.O=C(c1ccc(OCCN2CCCCC2)cc1)c1c(-c2ccc(O)cc2)sc2cc(O)ccc12 [raloxifene, Raloxifene hydrochloride, reference compound] : reported IC50 = ?
Output: > 1 µM

Input: Would you kindly repeat that for C[C@]12CC[C@@H]3c4ccc(O)cc4CC[C@H]3[C@@H]1CC[C@@H]2O [E2, 17β-estradiol, reference compound] ?
Output: > 1 µM

Input: Continue with Cc1ccc(CN(Cc2ccc(C(=O)N3CCc4ccc(O)cc4C3)cc2)Cc2ccco2)s1
Output: > 1 µM
